Data origin, for the record: paper PMC7176092

compounds and their reported concentration at 4 h
Assay: In vivo mouse DMPK study, single 1 mg/kg subcutaneous dose
Details: male, CD1, mouse, plasma, sc, 1 mg/kg, 4.00 h; 1 mg/kg s.c.; read-out: Plasma concentration, Mean

{"smiles.entry": "Cc1cccc(NC(=O)CN2C(=O)CC(c3ccccc3)=Nc3ccccc32)c1C", "endpoint.unit": "ng/mL", "concentration at 4 h": 1.6}
{"smiles.entry": "Cc1ccc(-c2nnc(SCC(=O)Nc3nccs3)[nH]2)cc1", "endpoint.unit": "ng/mL", "concentration at 4 h": 2.8}

###

Assay: Single dose time course study in plasma and brain, 10 mg/kg subcutaneous
Assay type: in vivo, mouse
Settings: mouse, sc; plasma; 10 mg/kg s.c. single dose; C57BL/6 male mice; read-out: Clast
measurement.type: concentration at 8 h (ng/mL)

{"smiles.entry": "Cc1ccc(-c2nnc(SCC(=O)Nc3nccs3)[nH]2)cc1", "quantitative.result": 17.4}

###

Assay: Single dose time course study in plasma and brain, 10 mg/kg subcutaneous
Format: in vivo, mouse
Details: mouse, sc; brain; 10 mg/kg s.c. single dose; C57BL/6 male mice

{"smiles.entry": "Cc1ccc(-c2nnc(SCC(=O)Nc3nccs3)[nH]2)cc1", "Cmax / ng/mL": 270}

###

Test: Single dose time course study in plasma and brain, 10 mg/kg subcutaneous
Assay type: in vivo, mouse
Details: mouse, sc; plasma; 10 mg/kg s.c. single dose; C57BL/6 male mice

{"molecule": "Cc1ccc(-c2nnc(SCC(=O)Nc3nccs3)[nH]2)cc1 [Compound 9]", "Cmax, µg/mL": 6.52}

###

Biological target: M5 (Homo sapiens)

{"molecule": "C[N+]1(C)CCC(OC(=O)C(c2ccccc2)c2ccccc2)CC1 [Compound 4-DAMP, 4-DAMP, reference compound]", "Ki, nM": 0.37}

###

Protein target, amino acids: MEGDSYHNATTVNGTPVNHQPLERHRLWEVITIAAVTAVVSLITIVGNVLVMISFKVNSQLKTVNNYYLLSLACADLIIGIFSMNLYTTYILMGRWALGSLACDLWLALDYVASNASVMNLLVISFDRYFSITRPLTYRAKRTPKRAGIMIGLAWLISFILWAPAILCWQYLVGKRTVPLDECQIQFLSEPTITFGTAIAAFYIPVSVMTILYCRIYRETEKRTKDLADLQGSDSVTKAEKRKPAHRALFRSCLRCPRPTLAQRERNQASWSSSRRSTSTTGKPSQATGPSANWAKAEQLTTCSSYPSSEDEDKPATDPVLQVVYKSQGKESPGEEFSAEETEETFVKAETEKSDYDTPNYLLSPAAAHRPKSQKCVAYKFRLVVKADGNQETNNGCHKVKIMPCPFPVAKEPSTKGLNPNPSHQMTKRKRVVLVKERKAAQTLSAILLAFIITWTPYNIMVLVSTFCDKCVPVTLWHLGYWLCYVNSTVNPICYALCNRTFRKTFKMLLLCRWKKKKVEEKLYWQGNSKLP
measurement.type: IC50 (nM)

{"molecule": "C[N+]1(C)CCC(OC(=O)C(c2ccccc2)c2ccccc2)CC1 [Compound 4-DAMP, 4-DAMP, reference compound]", "endpoint.unit": "nM", "quantitative.result": 0.73}

###

Target: human GPR17 (Homo sapiens, UniProt Q13304)
Construct: HA; expressed in transfected cells
Sequence (Q13304 29-367): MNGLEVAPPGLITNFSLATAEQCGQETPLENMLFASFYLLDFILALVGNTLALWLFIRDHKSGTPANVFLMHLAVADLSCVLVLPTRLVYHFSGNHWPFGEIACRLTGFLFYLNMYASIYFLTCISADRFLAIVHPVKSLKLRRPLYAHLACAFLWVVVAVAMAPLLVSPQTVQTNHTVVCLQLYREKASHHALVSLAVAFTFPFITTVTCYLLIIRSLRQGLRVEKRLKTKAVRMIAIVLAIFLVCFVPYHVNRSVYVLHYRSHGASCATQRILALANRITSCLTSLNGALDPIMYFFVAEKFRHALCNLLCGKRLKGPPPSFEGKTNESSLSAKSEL
Assay: [35S]GTPγS binding assay
Type: biochemical
Details: vs basal; mean ± SEM
compounds and their reported Emax (% vs basal)

{"smiles.entry": "COc1ccccc1-c1nnc(SCC(=O)Nc2ncc3c(n2)CCCC3=O)[nH]1", "Emax (% vs basal), %": 137.1}
{"smiles.entry": "Cc1cccc(-c2n[nH]c(SCC(=O)Nc3cccc4ccccc34)n2)c1", "Emax (% vs basal), %": 151.3}
{"smiles.entry": "COc1ccc(-c2nnc(SCC(=O)Nc3ncc(Cc4ccc(Cl)cc4)s3)n2-c2ccccc2)cc1OC", "Emax (% vs basal), %": 139.3}
{"smiles.entry": "CCOc1ccc(-n2c(SCC(=O)Nc3ccc4c(c3)OCCO4)nnc2-c2ccccc2Cl)cc1", "Emax (% vs basal), %": 141.3}

###

Target: human GPR17 (Homo sapiens, UniProt Q13304)
Construct: HA; expressed in transfected cells
Assay: [35S]GTPγS binding assay
Assay type: biochemical
Conditions: membranes of 1321N1 cells transfected with human GPR17; mean ± SEM of 3 experiments

{"smiles.entry": "CCOc1ccc(-n2c(SCC(=O)Nc3ccc4c(c3)OCCO4)nnc2-c2ccccc2Cl)cc1", "measured.on": "human GPR17 (Homo sapiens, UniProt Q13304)", "EC50 (nM)": 3.29}
{"smiles.entry": "O=C(CSc1nnc2n(Cc3ccc(Cl)cc3)c3ccccc3n12)N1CCc2ccccc2C1", "measured.on": "human GPR17 (Homo sapiens, UniProt Q13304)", "EC50 (nM)": 9.5}
{"smiles.entry": "COc1ccc(-n2c(SCC(=O)Nc3cc(C(C)(C)C)no3)nnc2-c2ccccc2OC)cc1", "measured.on": "human GPR17 (Homo sapiens, UniProt Q13304)", "EC50 (nM)": 22.5}
{"smiles.entry": "COc1ccc(-c2nnc(SCC(=O)Nc3ncc(Cc4ccc(Cl)cc4)s3)n2-c2ccccc2)cc1OC", "measured.on": "human GPR17 (Homo sapiens, UniProt Q13304)", "EC50 (nM)": 2.7}
{"smiles.entry": "COc1ccccc1-c1nnc(SCC(=O)Nc2ncc3c(n2)CCCC3=O)[nH]1", "measured.on": "human GPR17 (Homo sapiens, UniProt Q13304)", "EC50 (nM)": 2.9}
{"smiles.entry": "Cc1nc2ccc(NC(=O)CSc3nnc(-c4ccccc4)[nH]3)cc2[nH]1", "measured.on": "human GPR17 (Homo sapiens, UniProt Q13304)", "EC50 (nM)": 0.24}
{"smiles.entry": "COc1ccccc1-c1nnc(SCC(=O)Nc2nccs2)[nH]1", "measured.on": "human GPR17 (Homo sapiens, UniProt Q13304)", "EC50 (nM)": 8.48}
{"smiles.entry": "COc1ccccc1-c1nnc(SCC(=O)Nc2ncc3c(n2)CC(C)(C)CC3=O)[nH]1", "measured.on": "human GPR17 (Homo sapiens, UniProt Q13304)", "EC50 (nM)": 3.45}

###

Assay: In vivo mouse DMPK study, single 1 mg/kg subcutaneous dose
Conditions: male, CD1, mouse, plasma, sc, 1 mg/kg, 0.50 h; 1 mg/kg s.c.; read-out: Plasma concentration, individual mice

{"smiles.entry": "Cc1cccc(NC(=O)CN2C(=O)CC(c3ccccc3)=Nc3ccccc32)c1C", "concentration at 0.5 h": "17.4 ng/mL"}

###

Assay: Single dose time course study in plasma and brain, 10 mg/kg subcutaneous
Type: in vivo, mouse
Conditions: mouse, sc; plasma; 10 mg/kg s.c. single dose; C57BL/6 male mice
Protocol: Afterwards, the presence of the top compound in the brain was assessed in a single dose time course study consisting of a subcutaneous administration of a 10 mg/kg dose (15% Ethanol, 85% PEG400) to 24 naïve C57BL/6 male mice. Eight time-points (n = 3/time-point) were drawn over 24 hours after dosing. […] The brain of each animal was collected at sacrifice and analysed alongside plasma samples for compound quantification (n = 24 samples). […]

{"compound": "Cc1ccc(-c2nnc(SCC(=O)Nc3nccs3)[nH]2)cc1 [Compound 9]", "AUC(0-t)": "3930 ng·h/mL"}

###

compounds and their reported concentration at 2 h
Assay: In vivo mouse DMPK study, single 1 mg/kg subcutaneous dose
Conditions: male, CD1, mouse, plasma, sc, 1 mg/kg, 2.00 h; 1 mg/kg s.c.; n=3 mice

{"compound": "Cc1cccc(NC(=O)CN2C(=O)CC(c3ccccc3)=Nc3ccccc32)c1C [Compound 18]", "concentration at 2 h, ng/mL": 10.8}
{"compound": "Cc1ccc(-c2nnc(SCC(=O)Nc3nccs3)[nH]2)cc1 [Compound 9]", "concentration at 2 h, ng/mL": 15.2}

###

Test: In vivo mouse DMPK study, single 1 mg/kg subcutaneous dose
Conditions: mouse, sc; plasma; 1 mg/kg s.c. single dose; CD1 male mice

{"smiles.entry": "Cc1ccc(-c2nnc(SCC(=O)Nc3nccs3)[nH]2)cc1", "Tmax, min": 30}
{"smiles.entry": "Cc1cccc(NC(=O)CN2C(=O)CC(c3ccccc3)=Nc3ccccc32)c1C", "Tmax, min": 60}

###

Protein target, amino acids: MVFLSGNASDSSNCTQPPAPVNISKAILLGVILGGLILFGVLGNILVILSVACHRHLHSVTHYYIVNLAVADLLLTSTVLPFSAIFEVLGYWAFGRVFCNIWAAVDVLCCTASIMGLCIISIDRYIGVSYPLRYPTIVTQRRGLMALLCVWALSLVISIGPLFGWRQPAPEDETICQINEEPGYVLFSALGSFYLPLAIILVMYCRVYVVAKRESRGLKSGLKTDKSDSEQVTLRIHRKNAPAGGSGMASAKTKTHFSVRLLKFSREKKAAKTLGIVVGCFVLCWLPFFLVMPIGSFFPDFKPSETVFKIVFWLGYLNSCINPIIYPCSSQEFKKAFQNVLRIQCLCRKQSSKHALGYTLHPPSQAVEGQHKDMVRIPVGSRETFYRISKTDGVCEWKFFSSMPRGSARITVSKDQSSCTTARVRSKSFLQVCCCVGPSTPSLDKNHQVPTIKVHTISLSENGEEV
measurement.type: IC50 (nM)

{"compound": "COc1cccc(OC)c1OCCNCC1COc2ccccc2O1 (stereo not shown) [WB 4101, reference compound]", "measurement.type": "IC50", "quantitative.result": 0.39}
